# Measured on: PfRH5 of Plasmodium falciparum strain W2-mef (on live parasites) (Plasmodium falciparum)
# Measurement notes: cell-based or functional assay
Observation type: Max growth inhibition (%) W2-mef

>  <Binder>
H1H29127P (antibody, V domains shown) VH: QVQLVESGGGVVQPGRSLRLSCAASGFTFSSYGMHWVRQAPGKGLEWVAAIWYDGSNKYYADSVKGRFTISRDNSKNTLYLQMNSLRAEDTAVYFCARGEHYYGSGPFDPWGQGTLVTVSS VL: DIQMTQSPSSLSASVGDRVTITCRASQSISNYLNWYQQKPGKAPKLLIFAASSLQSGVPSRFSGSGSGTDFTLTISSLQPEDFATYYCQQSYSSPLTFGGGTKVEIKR

>  <Measurement units>
%

>  <Meas value>
53.6

$$$$
>  <Binder>
H1H29089P (antibody, V domains shown) VH: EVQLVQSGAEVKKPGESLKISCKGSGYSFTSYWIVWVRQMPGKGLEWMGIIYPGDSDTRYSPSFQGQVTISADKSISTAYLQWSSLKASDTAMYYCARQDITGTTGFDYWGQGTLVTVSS VL: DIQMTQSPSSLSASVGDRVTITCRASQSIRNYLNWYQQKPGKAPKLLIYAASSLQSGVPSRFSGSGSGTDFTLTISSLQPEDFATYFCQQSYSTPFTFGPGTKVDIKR

>  <Measurement units>
%

>  <Meas value>
66.4

$$$$
>  <Binder>
H1H29109P (antibody, V domains shown) VH: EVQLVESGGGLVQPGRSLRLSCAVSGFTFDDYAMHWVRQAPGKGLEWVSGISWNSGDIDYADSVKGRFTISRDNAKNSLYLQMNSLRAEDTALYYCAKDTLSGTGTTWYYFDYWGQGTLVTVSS VL: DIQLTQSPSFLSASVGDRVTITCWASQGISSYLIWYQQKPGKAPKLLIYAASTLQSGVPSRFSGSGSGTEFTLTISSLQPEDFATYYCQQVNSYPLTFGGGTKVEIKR

>  <Measurement units>
%

>  <Meas value>
37.9

$$$$
>  <Binder>
H1H29138P (antibody, V domains shown) VH: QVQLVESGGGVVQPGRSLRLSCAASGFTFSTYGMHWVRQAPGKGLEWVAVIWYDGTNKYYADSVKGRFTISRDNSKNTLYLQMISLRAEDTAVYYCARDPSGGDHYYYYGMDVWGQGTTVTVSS VL: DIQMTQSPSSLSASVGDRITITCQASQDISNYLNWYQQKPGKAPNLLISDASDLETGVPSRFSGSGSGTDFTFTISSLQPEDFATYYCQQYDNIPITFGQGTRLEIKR

>  <Measurement units>
%

>  <Meas value>
66.4

$$$$
>  <Binder>
H1H29104P (antibody, V domains shown) VH: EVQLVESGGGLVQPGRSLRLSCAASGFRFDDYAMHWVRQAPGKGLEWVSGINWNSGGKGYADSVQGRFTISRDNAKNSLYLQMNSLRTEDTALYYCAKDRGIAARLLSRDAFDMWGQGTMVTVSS VL: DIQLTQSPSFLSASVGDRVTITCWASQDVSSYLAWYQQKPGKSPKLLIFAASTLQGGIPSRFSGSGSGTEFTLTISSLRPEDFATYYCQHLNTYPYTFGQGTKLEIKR

>  <Measurement units>
%

>  <Meas value>
47.4

$$$$
>  <Binder>
H1H29100P (antibody, V domains shown) VH: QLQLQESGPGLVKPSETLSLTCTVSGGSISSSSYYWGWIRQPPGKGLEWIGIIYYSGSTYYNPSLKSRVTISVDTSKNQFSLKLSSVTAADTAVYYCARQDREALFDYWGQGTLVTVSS VL: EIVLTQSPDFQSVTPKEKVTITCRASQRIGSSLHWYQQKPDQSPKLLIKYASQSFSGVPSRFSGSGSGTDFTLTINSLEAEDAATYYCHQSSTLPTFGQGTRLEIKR

>  <Measurement units>
%

>  <Meas value>
67.3

$$$$
>  <Binder>
H1H29125P (antibody, V domains shown) VH: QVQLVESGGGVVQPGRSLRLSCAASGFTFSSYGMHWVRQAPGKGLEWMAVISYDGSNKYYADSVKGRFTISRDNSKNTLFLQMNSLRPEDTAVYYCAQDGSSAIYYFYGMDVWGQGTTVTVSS VL: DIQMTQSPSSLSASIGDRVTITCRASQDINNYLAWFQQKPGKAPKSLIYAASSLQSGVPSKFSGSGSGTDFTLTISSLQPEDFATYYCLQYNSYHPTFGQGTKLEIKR

>  <Measurement units>
%

>  <Meas value>
64.6

$$$$
